// PBM binding z-score lookup, one value per entry
System: PPARg:RXRa DBDmut IVT, anti-RXR (DBD mutation: RXRa K156A/R161A, NR concentration 270 nM, RXRa partner concentration 90 nM)
Assay: PBM binding z-score (relative to random genomic background probes); higher = stronger binding; sequences stand for … in GC…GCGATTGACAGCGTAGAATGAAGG
Hey, just send me the number, nothing else.

Some sequences with known PBM binding z-score results, for comparison:
CATACAGGGTAAGCTAGGCCAGAGTAGGGACGGC | 0.432
ATACCAAGGTGATCGTGAGTTCGTTGATACTAAC | 0.668
TAGCCTAGGTCATGGGCCAGTTTACCACGCGAAC | 1.76

Dear colleague, I am looking for the recorded PBM binding z-score of the following sequence: CCGACTGGGTCAAAGGTTACCATACTCAGTACGA
6.05

Dear colleague, I am looking for the recorded PBM binding z-score of the following sequence: CCGAGTAGGTTACCAGGGGGCATTCAGTGCGAAT
3.65

Dear colleague, I am looking for the recorded PBM binding z-score of the following sequence: CCTACTGGGGCACGAAAGGTCATTGATTCAGTGA
5.75

---

System: RARa homodimer (NR concentration 270 nM)
Assay: PBM binding z-score (relative to random genomic background probes); higher = stronger binding; sequences stand for … in GC…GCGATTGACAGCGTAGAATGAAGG
readout: PBM binding z-score
Hey, just send me the number, nothing else.

AGTCAAAGTTCATCTAGGTAACGAAAGATATGCT | 2.16
CCCACTGGGGCAAAGGTTACCATACTCAGTACGA | 0.0182
CGAACTAGGTCAACAGGACAGTGAAGAGGTTGGA | 0.467
TGAATGAGGTGAAAGATCAGGGAACGTGGCGTCG | -0.562
CGTCCAAGGTCATAGGAGGTCACTGAAGACAGAT | 3.25
CCTACTGGGCCACGTAAGGTCATTGATTCAGTGA | 0.62
ATATGTAGGTTAGGGTCTTTCAGAAAGTAGGGAA | 1.44
ATATGTGGGTTAGGGTCATTCAGAAAGTAGGGAA | 3.33

Recorded PBM binding z-score for CTATGTAGGTTAAGGGGGTCATTTAGTTTGAAAG with RARa homodimer (NR concentration 270 nM), please?
1.96

Recorded PBM binding z-score for TAGCCTAGGTCATTGTGCCAGTATAGTACGCATC with RARa homodimer (NR concentration 270 nM), please?
-0.0989

Recorded PBM binding z-score for TCTAGTTGGTCAAAGGTCAAACACTCGAAATGCG with RARa homodimer (NR concentration 270 nM), please?
2.96

Recorded PBM binding z-score for CCGACTGGGCCATTCAGAGGTCATTGATCATATG with RARa homodimer (NR concentration 270 nM), please?
-0.131

---

System: PPARg DBDmut:RXRa IVT, anti-PPARg (DBD mutation: PPARg1 K132A/R137A, NR concentration 270 nM, RXRa partner concentration 90 nM)
Test: PBM binding z-score (relative to random genomic background probes); higher = stronger binding; sequences stand for … in GC…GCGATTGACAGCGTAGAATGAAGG
readout: PBM binding z-score
Hey, just send me the number, nothing else.

Some sequences with known PBM binding z-score results, for comparison:
CGTCCAAGGTCAGAGAGGTCATTGAATGCCGAGT | 0.144
CCTAGTTGGCCAAGGTCACACACGCTATAGGTAC | 0.582
CCCCGGAGGACAGAAGGTCAGAGCTGTCCGCTTT | -2.12
CCTACTGGGCCACTCAGAGGTCATTGATCATATG | -0.186
GATCCAGGGTCAGCTAGAGGCCAGAGTATGGAAA | -0.6

Dear colleague, I am looking for the recorded PBM binding z-score of the following sequence: CGTCCAAGGTCATAGGAGTTCAGTGAAGACAGAT
1.39

Dear colleague, I am looking for the recorded PBM binding z-score of the following sequence: CAAACTAGGTCAAGAGGTCAAAGGCCGCTTCCCG
6.15

Dear colleague, I am looking for the recorded PBM binding z-score of the following sequence: CGTCCAAGGTCAGATAGGTCAGTGAATGCCGAGT
-0.168

Dear colleague, I am looking for the recorded PBM binding z-score of the following sequence: TAGCCTAGGTCAGATCGGGCCAGTCTACGCTATA
-0.912

Dear colleague, I am looking for the recorded PBM binding z-score of the following sequence: CGTCCAAGGTCAATTCTAGGTCAGTGAAAGCATT
0.615

Dear colleague, I am looking for the recorded PBM binding z-score of the following sequence: CCAGACAGGTGAAAGGTCACTCAGTCTGGTACGC
0.814

Dear colleague, I am looking for the recorded PBM binding z-score of the following sequence: TTACGAAGGTGAAAGGTCGTTGATGCACGCCTTG
0.416

Dear colleague, I am looking for the recorded PBM binding z-score of the following sequence: CGTCCAAGGTCAAGGTCACTGAAAGAGACTCGAA
1.81

Dear colleague, I am looking for the recorded PBM binding z-score of the following sequence: CCTACTGGGCCAAAAAGGCCATTGATGCCGATAA
0.199
